The values you see were collected from ChEMBL document CHEMBL3885861.

organism: Rattus norvegicus; test: Open TG-GATES - Regimen: Daily Repeat; format: toxicity, organism-based, Sprague-Dawley; set-up: regimen Daily Repeat, gender Male, age 6 weeks; details: in vivo, po, 300 mg/kg, […], tissue Blood, route gavage, dose level Middle, time 28 day
Assay Readout: MCH (pg)
Write it as a number; the unit pg goes unstated.

Would you please look over these solved cases?
O=C(OC[C@H]1O[C@@H](OC(=O)c2cc(O)c(O)c(OC(=O)c3cc(O)c(O)c(O)c3)c2)[C@H](OC(=O)c2cc(O)c(O)c(OC(=O)c3cc(O)c(O)c(O)c3)c2)[C@@H](OC(=O)c2cc(O)c(O)c(OC(=O)c3cc(O)c(O)c(O)c3)c2)[C@@H]1OC(=O)c1cc(O)c(O)c(OC(=O)c2cc(O)c(O)c(O)c2)c1)c1cc(O)c(O)c(OC(=O)c2cc(O)c(O)c(O)c2)c1 [TANNIC ACID]: 19.6
COC(=O)C1=C(C)NC(C)=C(C(=O)OC)C1c1ccccc1[N+](=O)[O-] [NIFEDIPINE]: 21.3
CN/C(=N/CCSCc1nc[nH]c1C)NC#N [CIMETIDINE]: 19.5
CNC(=C[N+](=O)[O-])NCCSCc1ccc(CN(C)C)o1 [RANITIDINE]: 20.5
Cc1nnc2n1-c1ccc(Cl)cc1C(c1ccccc1Cl)=NC2 [TRIAZOLAM]: 19.3

# context switch: different compound, same MCH
The compound listed as CCOc1ccc(NC(C)=O)cc1 [PHENACETIN] has a reported MCH of 19.1

====

Readings of MCHC for the listed molecules
species: Rattus norvegicus; experiment: Open TG-GATES - Regimen: Single; assay type: toxicity, organism-based, Sprague-Dawley; set-up: regimen Single, gender Male, age 6 weeks; details: in vivo, po, 0 mg/kg, 3 h, tissue Blood, route gavage, dose level Control
Write it as a number; the unit % goes unstated.

Nc1c2c(nc3ccccc13)CCCC2: 34.2

# context switch: different molecule, same MCHC
The molecule listed as O=C(OC[C@H]1O[C@@H](OC(=O)c2cc(O)c(O)c(OC(=O)c3cc(O)c(O)c(O)c3)c2)[C@H](OC(=O)c2cc(O)c(O)c(OC(=O)c3cc(O)c(O)c(O)c3)c2)[C@@H](OC(=O)c2cc(O)c(O)c(OC(=O)c3cc(O)c(O)c(O)c3)c2)[C@@H]1OC(=O)c1cc(O)c(O)c(OC(=O)c2cc(O)c(O)c(O)c2)c1)c1cc(O)c(O)c(OC(=O)c2cc(O)c(O)c(O)c2)c1 has a reported MCHC of 33.6

====

organism: Rattus norvegicus; experiment: Open TG-GATES - Regimen: Daily Repeat; assay type: toxicity, organism-based, Sprague-Dawley; set-up: regimen Daily Repeat, gender Male, age 6 weeks; details: in vivo, po, 0 mg/kg, 72 h, tissue Plasma, route gavage, dose level Control, time 3 day
Classify by LDH. Ranges: category 1: < 70 IU/L; category 2: ≥ 70 IU/L and < 100 IU/L; category 3: ≥ 100 IU/L

Worked examples, 3 compounds total:
Nc1c2c(nc3ccccc13)CCCC2: category 3
O=C(OC[C@H]1O[C@@H](OC(=O)c2cc(O)c(O)c(OC(=O)c3cc(O)c(O)c(O)c3)c2)[C@H](OC(=O)c2cc(O)c(O)c(OC(=O)c3cc(O)c(O)c(O)c3)c2)[C@@H](OC(=O)c2cc(O)c(O)c(OC(=O)c3cc(O)c(O)c(O)c3)c2)[C@@H]1OC(=O)c1cc(O)c(O)c(OC(=O)c2cc(O)c(O)c(O)c2)c1)c1cc(O)c(O)c(OC(=O)c2cc(O)c(O)c(O)c2)c1: category 1
CC(C)NNC(=O)c1ccncc1: category 3

IN: Exercise: read the entry CN/C(=N/CCSCc1nc[nH]c1C)NC#N and state which class it falls under.
OUT: category 3

IN: Exercise: read the entry CNC(=C[N+](=O)[O-])NCCSCc1ccc(CN(C)C)o1 and state which class it falls under.
OUT: category 3

IN: Exercise: read the entry Brc1ccccc1 and state which class it falls under.
OUT: category 1

IN: Exercise: read the entry COC(=O)C1=C(C)NC(C)=C(C(=O)OC)C1c1ccccc1[N+](=O)[O-] and state which class it falls under.
OUT: category 2

IN: Exercise: read the entry Cc1nnc2n1-c1ccc(Cl)cc1C(c1ccccc1Cl)=NC2 and state which class it falls under.
OUT: category 2

IN: Exercise: read the entry CN1C(=O)CCS(=O)(=O)C1c1ccc(Cl)cc1 (stereo not drawn) and state which class it falls under.
OUT: category 1

IN: Exercise: read the entry CCOc1ccc(NC(C)=O)cc1 and state which class it falls under.
OUT: category 3

IN: Exercise: read the entry NC1=NC(=O)C(c2ccccc2)O1 (stereo not drawn) and state which class it falls under.
OUT: category 1

IN: Exercise: read the entry CCCc1cc(=O)[nH]c(=S)[nH]1 and state which class it falls under.
OUT: category 2

IN: Exercise: read the entry CN(C)CCC(c1ccc(Cl)cc1)c1ccccn1 (stereo not drawn) and state which class it falls under.
OUT: category 3
